assayInfo: chemical genetic growth profiling, strain panel (AID 1159580);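 also: tested at 20 µM; growth read once vehicle control cultures reached saturation at 30 °C; 1 = growth at the plate median or of vehicle wells; lower values mean less growth of the strain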
measurementParameters: S. cerevisiae deletion strains, growth OD, locus YFL029C, strain CAK1
Hit rate of the full screen: of about 5,500 compounds, about 2,000 (36%) were called active. Inconclusive results (about 18%) are left out. Rule as the data show it: active = normalized growth mostly below about 0.91 (no sharp cut-off); inconclusive = no clear call, values can overlap the other calls; inactive = mostly above about 0.92. Some of the results follow.
Choose the fitting class; nothing outside active, inactive is accepted.

// known answers, use as guide
compound | labelClass
Cc1ccc(C(O)(c2ccccc2)c2ccccc2)c2ccccc12 | inactive
COc1cc(NC(=S)Nc2ccccc2OC(F)(F)F)cc(C(F)(F)F)c1 | inactive
N#Cc1c(Br)cnn1Cc1cc(C(F)(F)F)cc(C(F)(F)F)c1 | inactive
O=C1c2ccccc2O[C@@H](c2ccccc2)[C@@H]1NC1CCCCC1 | inactive
Cc1ccc(C(=O)O/N=C(/N)CSc2ncccc2C(F)(F)F)cc1 | inactive

Could you check what this test reported for N/C(CSc1ncccc1C(F)(F)F)=N/OC(=O)Nc1cccc(Cl)c1 ? inactive

For Clc1ccccc1N/N=C\Cc1nnnn1-c1ccccc1 , which call appears in the assay record? inactive

Which result was noted for this compound in the test: C#Cc1cccc(N=Cc2cc(Cl)cc(Br)c2O)c1 active

Write down the call the test reported for this compound. Item: N/C(CSc1ccc(Cl)cc1)=N/OC(=O)c1ccc(C(F)(F)F)cc1 active

Which outcome was entered for the compound CCC(C)COC(=O)/C=C/c1ccc(N=Cc2ccc(OC)cc2)cc1 (stereo unspecified) in this test? inactive

Tell me the assay call for Cc1cc(C(=O)O/N=C(/N)CSc2ncccc2C(F)(F)F)no1 please. inactive

---

assayInfo: chemical genetic growth profiling, strain panel (AID 1159580);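 also: tested at 20 µM; growth read once vehicle control cultures reached saturation at 30 °C; 1 = growth at the plate median or of vehicle wells; lower values mean less growth of the strain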
measurementParameters: S. cerevisiae deletion strains, growth OD, locus YOR119C, strain RIO1, hits give low values
The campaign covered roughly 5,500 compounds. About 2,000 (36%) were called active. Another 18% or so got no clear call; they are omitted. The list shows a part of the results.
measurementName: normalized growth

compound | normalized growth
O=C(CSCc1nc(-c2ccc(Cl)cc2)cs1)N/N=C\c1cccs1 | 0.994 (inactive)
O=C(NNC(=O)c1csc(-c2cccs2)n1)c1ccc(C(F)(F)F)cc1 | 0.877 (inactive)
CCC(C)COC(=O)/C=C/c1ccc(N=Cc2ccc(OC)cc2)cc1 (stereo not given) | 0.816 (inactive)
CC(C)CSc1nnc(CSCc2nc(-c3ccc(Cl)cc3)cs2)n1C | 1.01 (inactive)
N/C(CSc1ncccc1C(F)(F)F)=N/OC(=O)Nc1cccc(Cl)c1 | 0.885 (inactive)
CN(C(=O)N(C)c1ccc(Cl)cc1C(=O)c1ccccc1Cl)c1ccc(Cl)cc1C(=O)c1ccccc1Cl | 0.483 (active)

// batch mode: one normalized growth value per listed entry
1. O=C1c2ccccc2O[C@@H](c2ccccc2)[C@@H]1NCc1ccccc1
2. O=C1c2ccccc2O[C@@H](c2ccccc2)[C@@H]1NC1CCCCC1
3. Cc1cc(C(=O)O/N=C(/N)CSc2ncccc2C(F)(F)F)no1
4. Cc1ccc(C(O)(c2ccccc2)c2ccccc2)c2ccccc12

0.89 (inactive)
0.945 (inactive)
1.04 (inactive)
1.05 (inactive)

---

Kindly state normalized growth for each of the entries shown.
assayInfo: chemical genetic growth profiling, strain panel (AID 1159580);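 also: tested at 20 µM; growth read once vehicle control cultures reached saturation at 30 °C; 1 = growth at the plate median or of vehicle wells; lower values mean less growth of the strain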
measurementParameters: S. cerevisiae deletion strains, growth OD, locus YNL322C, strain KRE1, hits give low values
Out of some 5,500 compounds screened, about 2,000 (36%) were called active. Roughly 18% stayed inconclusive and do not appear here. The list shows a part of the results.
Numbers only.

compound | measuredResult
N#Cc1ccc([N+](=O)[O-])s1 | 1.01
CCCCCCCCCCCCCCCC[n+]1ccccc1 | 0.048
CC(C)(C)C(=O)N1CCN(c2ncccc2C(F)(F)F)CC1 | 0.974
Cc1cc(=O)c2c(O)c3c(cc2o1)OCC(C)CC3 (stereo not drawn) | 0.923

Could you tell me normalized growth for each of these compounds? They are listed below.
1. CCN(CCCCOC(=O)c1ccc(OC)c(OC)c1)C(C)Cc1ccc(OC)cc1 (stereo not drawn)
2. NCC(=O)CCC(=O)O
3. Cc1ccc(COc2ccc(C)nc2[N+](=O)[O-])cc1
4. CC(=O)c1csc(-c2ccc(C(F)(F)F)cc2)n1
5. CCCCCCCCCc1ccc(O)cc1
6. CC(=O)[C@H]1CCC2C3CC=C4C[C@@H](OS(=O)(=O)O)CC[C@]4(C)C3CC[C@@]21C (stereo partly drawn)
7. O=C1CCCc2c1nc(-c1ccccc1)n2O

1. 0.982
2. 1.02
3. 0.972
4. 0.971
5. 0.167
6. 0.964
7. 1.01

Please give normalized growth, item by item, for the list that follows.
1. CSc1nc(N)nc(C(C)(C)C)n1
2. C[n+]1cc2c3c(ccc2c2ccc4cc5c(cc4c21)OCO5)OCO3
3. COc1ccc2cc3[n+](cc2c1OC)CCc1cc2c(cc1-3)OCO2
4. O=C1CCc2cc(OCCCCc3nnnn3C3CCCCC3)ccc2N1
5. CC1=CCc2c(cc3oc(C)cc(=O)c3c2O)OC1
6. O=C1NC(c2ccccc2Cl)Nc2ccccc21 (stereo not drawn)
7. Clc1ccc(Cl)cc1

1
0.0622
0.496
1.01
0.94
0.99
1.01

Can you give me normalized growth for all of these, one by one?
1. Nc1ccc(N2C(=O)c3ccccc3C2=O)c(Cl)c1
2. NC(=O)CC[C@@H](N)C(=O)O
3. C=CCCCCCCCCCCCC(O)CC(O)CO (stereo not drawn)
4. c1ccc(Sc2c(-c3ccccc3)nc3ccccn23)cc1
5. CC1(C)O[C@@H]2CC3C4C[C@H](F)C5=CC(=O)C=CC5(C)C4C(O)CC3(C)[C@]2(C(=O)CO)O1 (stereo partly drawn)

0.986
1.02
0.979
0.915
1.01

Please give normalized growth, item by item, for the list that follows.
1. Clc1cccc(-c2csc(Nc3cccnc3)n2)c1
2. CN1CCc2c(c3ccccc3n2Cc2ccccc2)C1
3. COC(=O)c1cn(Cc2ccc(C(F)(F)F)cc2)cc(F)c1=O
4. CC1=C2C(=CO[C@H](C)[C@H]2C)C(=O)C(C(=O)O)=C1O
5. CCCCC1C(=O)N(c2ccccc2)N(c2ccccc2)C1=O

[1, 1.01, 1.01, 0.968, 0.973]
